Values from PubChem BioAssay

biological target: 6-phosphogluconate dehydrogenase, decarboxylating (Homo sapiens) (UniProt P52209); test: 6PGD enzyme inhibitors, primary screen, biochemical, human, recombinant enzyme, NADPH absorbance (AID 1159550); conditions: recombinant 6PGD, NADPH absorbance 341 nm; at 10 µM; stronger effect = higher value
Sequence (P52209 whole entry, looked up): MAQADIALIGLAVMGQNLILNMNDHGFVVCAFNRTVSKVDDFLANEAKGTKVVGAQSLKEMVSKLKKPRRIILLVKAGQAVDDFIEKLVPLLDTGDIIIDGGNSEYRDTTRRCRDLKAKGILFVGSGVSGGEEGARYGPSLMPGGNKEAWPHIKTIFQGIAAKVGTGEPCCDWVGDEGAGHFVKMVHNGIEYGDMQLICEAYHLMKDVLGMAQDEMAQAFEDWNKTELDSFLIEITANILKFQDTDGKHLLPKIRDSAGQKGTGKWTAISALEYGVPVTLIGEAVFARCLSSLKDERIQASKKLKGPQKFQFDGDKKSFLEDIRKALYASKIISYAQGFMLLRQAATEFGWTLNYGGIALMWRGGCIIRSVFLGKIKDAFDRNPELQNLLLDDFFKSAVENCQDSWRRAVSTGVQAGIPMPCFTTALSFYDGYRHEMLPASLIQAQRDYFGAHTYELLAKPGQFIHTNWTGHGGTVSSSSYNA
MEASUREMENT NAME: inhibition (%)
The reply should contain only the number, in %.

C[C@]12CCC3C(CC[C@H]4C[C@@H](Cl)CC[C@]34C)C1CCC2=O (some centres not stated) | -16.8
O=C1CCCC2C3CC(CN12)C1CCCCN1C3 (configuration not stated) | -2.75

response.value for CC(C)=CCC[C@]1(C)C=Cc2c(O)c3c(c(CC=C(C)C)c2O1)O[C@]12C(=C[C@@H]4C[C@H]1C(C)(C)O[C@@]2(C/C=C(/C)C(=O)O)C4=O)C3=O (field: inhibition) = -17.6

response.value for N#Cc1c(Cl)c(Cl)c(Cl)c(C#N)c1Cl (field: inhibition) = -66.6

response.value for Clc1ccc(CO/N=C(\Cn2ccnc2)c2ccc(Cl)cc2Cl)c(Cl)c1 (field: inhibition) = -14.7

====

Recorded fluorescence ratio (interference) by entry
experiment: Cy5 fluorescence quenching or enhancement artefacts, artefact control for HCV NS3 helicase inhibitor project, biochemical, LOPAC1280 (AID 687037); settings: Cy5-DNA-NS3h complex fluorescence interference counterscreen
Please reply with the value in numeric form only.

Reference set, count: 3
O=C1CCCN1CC#CCN1CCCC1 | 0.9
CC1(C(=O)O)C2CCC(O2)C1(C)C(=O)O (stereo not given) | 1
CC1=NN=C(c2ccc(N)cc2)c2cc3c(cc2C1)OCO3 | 1

response.value for CCN1C[C@@]2(COC)C3[C@@H](OC)C4[C@@H]1C3([C@@H]1C[C@@]3(O)[C@H](OC(=O)c5ccccc5)[C@@H]1[C@]4(OC(C)=O)[C@@H](O)[C@@H]3OC)[C@H](OC)C[C@H]2O (field: fluorescence ratio (interference)) = 1

response.value for CC(C)(O)[C@@H]1[C@H]2OC(=O)[C@@H]1[C@]1(O)C[C@H]3O[C@]34C(=O)O[C@H]2[C@]14C (tested in a mixture with another compound) (field: fluorescence ratio (interference)) = 1

====

biological target: NAD(+) hydrolase SARM1 (Homo sapiens); assay: SARM1 TIR NADase inhibitors, cell lysate, NAD-Glo luminescence (AID 1508614); details: SAM-TIR HEK293T lysate NADase, at 1 µM;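 note: higher remaining NAD means stronger inhibition of SARM1 NADase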
Calls of active or inactive are those of the source.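 How the source made its calls: active means compound whose remaining NAD level is above about 45 nM (limit read from the data); inactive means the rest.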
Output constraint: value belongs to active, inactive

CCN(C(C)=O)c1cccc(-c2ccnc3c(C#N)cnn23)c1 | inactive

Q: Which outcome did this test record for the molecule C[C@H]1O[C@@H](O[C@H]2[C@@H](O)C[C@H](O[C@H]3[C@@H](O)C[C@H](O[C@H]4CC[C@@]5(C)[C@H](CC[C@@H]6[C@@H]5CC[C@]5(C)[C@@H](C7=CC(=O)OC7)CC[C@]65O)C4)O[C@@H]3C)O[C@@H]2C)C[C@H](O)[C@@H]1O ?
A: inactive

Q: Which outcome did this test record for the molecule NCC1(CC(=O)O)CCCCC1 ?
A: inactive

Q: Which outcome did this test record for the molecule CN(C)C(=S)SSC(=S)N(C)C ?
A: active

Q: Which outcome did this test record for the molecule N[C@@H](Cc1ccc(N(CCCl)CCCl)cc1)C(=O)O ?
A: inactive

Q: Which outcome did this test record for the molecule CC(C)=CC1C(C(=O)OCc2cccc(Oc3ccccc3)c2)C1(C)C (configuration not stated) ?
A: inactive

Q: Which outcome did this test record for the molecule O=C1C=C2C=C[C@@H]3C[C@@]2(O1)[C@H]1CCCCN31 ?
A: inactive

====

assay: HepG2 cytotoxicity, primary screen, cytotoxicity control for P. falciparum antimalarial project, cell-based, ATP luminescence (AID 2303); settings: HepG2 viability, 24-48 h, at 10 µM, stronger effect = higher value;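 note: 0% = DMSO wells and 100% = digitonin-killed cells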
Lab note: anything with inhibition below 20% is marked yes; values at 20% or higher are marked no.

Solved cases below.
Cn1nc(-c2ccc(S(=O)(=O)N3CCC(CN4CCC(c5c[nH]c6ccccc56)CC4)CC3)s2)cc1C(F)(F)F | yes
CNCCN(C)C(=O)Oc1c(Br)c(C)nc(C)c1-c1ccc(Oc2ccc(OC(F)(F)F)cc2)cc1 | yes
Cc1ccc(C2(O)C[C@H]3CC[C@@H](C2)N3C)cc1 (stereo partly drawn) | yes
O=C(/C=C/c1cc(C(F)(F)F)ccc1F)N1CCC(CN2CCC(c3c[nH]c4ccccc34)CC2)CC1 | no
O=C(/C=C/c1ccc(Cl)c(Cl)c1)NC1CCC(CN2CCC(c3c[nH]c4ccccc34)CC2)CC1 (stereo not drawn) | no
O=C(NC1CCC(CN2CCC(c3c[nH]c4ccccc34)CC2)CC1)c1cnn(-c2ccccc2)c1-c1ccccc1Cl (stereo not drawn) | no
CCCCCSc1cc(O)c(C(CNC)C(C)C)cc1OC (stereo not drawn) | yes
CC[C@H]1CN2CC[C@H]1C[C@H]2[C@H](O)c1cc(N2CCC3CCCCC3C2)nc2ccc(OC)cc12 (stereo partly drawn) | no
c1ccc(C(OCCC2CCN(Cc3cccnc3)CC2)c2ccccc2)cc1 | yes
Cc1[nH]c2ccc([N+](=O)[O-])cc2c1C1=CCN(C)CC1 | yes

Q: # strict comparison: is reported inhibition < 20%? input = CS(=O)(=O)Nc1ccc2[nH]cc(C3CCN(CC4CCC(NC(=O)/C=C/c5ccc(Cl)c(Cl)c5)CC4)CC3)c2c1 (stereo not drawn)
A: no

Q: # strict comparison: is reported inhibition < 20%? input = CC(C)C[C@H](Nc1ccc(C#N)c2ccccc12)C(=O)N[C@@H]1CCCc2ccccc21
A: no

Q: # strict comparison: is reported inhibition < 20%? input = Cc1[nH]c2ccccc2c1C1=CCN(CCN2CCOc3c(Br)cccc3C2=O)CC1
A: yes

Q: # strict comparison: is reported inhibition < 20%? input = CCCCCCCN1[C@@H]2CC[C@H]1CC(CCOc1ccnc3ccc(OC)cc13)C2 (stereo partly drawn)
A: no

Q: # strict comparison: is reported inhibition < 20%? input = COc1ccc2[nH]cc(C3C[C@H]4CC[C@@H](C3)N4CCC3CCN(C(=O)/C=C/c4ccc(Cl)c(Cl)c4)CC3)c2c1 (stereo partly drawn)
A: no

Q: # strict comparison: is reported inhibition < 20%? input = COc1ccc(C[C@@H](C)NC[C@H](O)c2cccc(Cl)c2)cc1F
A: yes

Q: # strict comparison: is reported inhibition < 20%? input = O=C(CCC(=O)c1ccc2c3c(cccc13)CC2)NC1CCC(CN2CCC(c3c[nH]c4ccccc34)CC2)CC1 (stereo not drawn)
A: no

Q: # strict comparison: is reported inhibition < 20%? input = CC[C@H]1CN2CC[C@H]1C[C@H]2[C@H](O)c1cc(N2CCCC2)nc2ccc(OC)cc12
A: yes

Q: # strict comparison: is reported inhibition < 20%? input = CC(C)CN1CCC(N(C)c2cc(NC(=O)c3cccc(F)c3)ccn2)CC1
A: yes

Q: # strict comparison: is reported inhibition < 20%? input = COC(=O)c1ccc(CC(C)NCC(O)c2cccc(Cl)c2Cl)cc1 (stereo not drawn)
A: yes

====

assay: LFS_MB_P medulloblastoma growth inhibition, cell-based, chromothripsis tumors, cisplatin or BGB combos (AID 1671449); settings: LFS_MB_P medulloblastoma cells, measured here: combination with cisplatin, at 0.5 µM, stronger effect = higher value;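 note: cells exposed for 96 hours; 0% = vehicle DMSO and 100% = killing by high DMSO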
MEASUREMENT NAME: inhibition
A complete answer gives the number and then names the unit.

CCC1(c2ccccc2)C(=O)NC(=O)NC1=O | 121%
CC1(C)C(C(=O)Nc2ccc(S(=O)(=O)c3ccc(NC(=O)C4C(C)(C)C4(C)C)cc3)cc2)C1(C)C | -30.9%
CN(C)NC(=O)CCC(=O)O | 2.21%
Cn1c(CCCC(=O)O)nc2cc(N(CCCl)CCCl)ccc21 | -29.9%
NC(Cc1ccc(N(CCCl)CCCl)cc1)C(=O)O (stereo unspecified) | -3.85%

// next item, inhibition requested
response.value for O=c1[nH]c(=O)n(C2OC(CO)C(O)C2O)cc1F (stereo unspecified) (field: inhibition) = -21.6%

====

Recorded tube area decrease by entry
assay: inhibition of endothelial tube formation, primary screen, imaging, VEGF stimulated, CD31 staining, tube area, NPC library (AID 1117340); conditions: VEGF-stimulated ADSC/ECFC co-culture, at 10 µM, stronger effect = higher value
The reply should contain only the number, in %.

Reference set, count: 8
CCC(CC)(CNC(=O)CCCO)c1cccc(OC)c1 | 11.5
COP(=S)(OC)Oc1cc(Cl)c(Cl)cc1Cl | -3.6
CCOP(=S)(OCC)O/N=C(\C#N)c1ccccc1 | -2.3
CCN(Cc1ccc(Cl)nc1)/C(=C/[N+](=O)[O-])NC | -21.3
Oc1ccc2[nH]cc(CCCCN3CC=C(c4ccccc4)CC3)c2c1 | 76.6
CN(C)C(=O)Oc1cc(OC(=O)N(C)C)cc(C(O)CNC(C)(C)C)c1 (stereo unspecified) | -4
COc1ccc2c(c1OC)CN1CCc3cc4c(cc3C1C2)OCO4 (stereo unspecified) | 1.4
O=C(Nc1ccc(Br)cc1)c1cc(Br)cc(Br)c1O | 108

response.value for Clc1ccc(CCC(Cn2ccnc2)Sc2c(Cl)cccc2Cl)cc1 (stereo unspecified) (field: tube area decrease) = 109

response.value for CC(C(O)c1ccccc1)N(C)C/C=C/c1ccccc1 (stereo unspecified) (field: tube area decrease) = 54.6

response.value for O=C1OC2(c3cc(Br)c(O)cc3Oc3c2cc(Br)c(O)[c]3[Hg])c2ccccc21 (stereo unspecified) (field: tube area decrease) = -234

response.value for CCc1ccc(C2CCNCC2)cc1 (field: tube area decrease) = 1.2

response.value for S=C(SSC(=S)N1CCCCC1)N1CCCCC1 (field: tube area decrease) = 8.9
